molecular target: mGAT3 (Mus musculus); assay: cell-based; design: gene Slc6a11
Sequence (P31650 whole entry): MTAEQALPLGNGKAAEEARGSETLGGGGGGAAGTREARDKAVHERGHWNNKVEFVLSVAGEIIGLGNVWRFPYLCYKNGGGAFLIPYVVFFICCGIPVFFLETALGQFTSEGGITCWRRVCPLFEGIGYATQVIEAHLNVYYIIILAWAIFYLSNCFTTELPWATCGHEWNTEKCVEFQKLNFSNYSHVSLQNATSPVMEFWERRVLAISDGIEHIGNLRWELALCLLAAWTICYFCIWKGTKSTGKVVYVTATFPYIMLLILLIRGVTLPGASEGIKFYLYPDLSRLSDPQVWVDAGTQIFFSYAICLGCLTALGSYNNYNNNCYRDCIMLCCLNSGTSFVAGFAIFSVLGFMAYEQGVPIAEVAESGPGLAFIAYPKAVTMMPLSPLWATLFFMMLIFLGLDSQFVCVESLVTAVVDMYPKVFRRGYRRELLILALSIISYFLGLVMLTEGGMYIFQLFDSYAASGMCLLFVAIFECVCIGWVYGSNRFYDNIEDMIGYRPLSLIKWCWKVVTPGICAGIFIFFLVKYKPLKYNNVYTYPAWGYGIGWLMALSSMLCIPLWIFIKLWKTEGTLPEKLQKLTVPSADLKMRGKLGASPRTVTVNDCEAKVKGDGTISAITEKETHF
experimental.readout: IC50 (µM)
Supply the numeric figure in µM, leaving out any unit text.

What does the data say about its IC50? Entry: NCCC(=O)O
18

====

target: rSERT (Rattus norvegicus, UniProt P31652); construct: gene Slc6a4; previously cloned cDNA; no tag mentioned; experiment: [3H]5-HT uptake inhibition, stable CHO cells; type: cell-based
Sequence (P31652 whole entry): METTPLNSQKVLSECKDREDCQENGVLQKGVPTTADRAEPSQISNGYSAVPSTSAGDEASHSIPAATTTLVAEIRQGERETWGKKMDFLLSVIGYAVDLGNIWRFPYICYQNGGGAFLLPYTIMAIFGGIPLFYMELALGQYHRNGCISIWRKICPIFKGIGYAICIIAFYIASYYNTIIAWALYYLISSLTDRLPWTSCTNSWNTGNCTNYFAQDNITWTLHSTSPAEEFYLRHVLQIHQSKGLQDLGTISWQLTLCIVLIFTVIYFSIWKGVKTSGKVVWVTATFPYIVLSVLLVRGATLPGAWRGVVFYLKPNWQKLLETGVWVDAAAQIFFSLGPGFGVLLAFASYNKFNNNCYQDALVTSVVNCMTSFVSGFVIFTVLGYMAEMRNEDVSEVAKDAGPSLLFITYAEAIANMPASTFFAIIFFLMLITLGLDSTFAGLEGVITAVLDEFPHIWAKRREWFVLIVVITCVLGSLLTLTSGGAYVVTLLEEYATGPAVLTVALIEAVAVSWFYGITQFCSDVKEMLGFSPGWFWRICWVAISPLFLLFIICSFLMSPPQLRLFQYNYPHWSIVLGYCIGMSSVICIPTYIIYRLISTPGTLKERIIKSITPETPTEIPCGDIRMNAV
experimental.readout: IC50 (µM)
Supply the numeric figure in µM, leaving out any unit text.

What does the data say about its IC50? Entry: CC(CN(C)C)CN1c2ccccc2CCc2ccccc21 (stereo not shown)
5.89

====

biological target: UniProtKB P31649; assay: [3H]GABA uptake inhibition, stable CHO cells; format: cell-based; design: gene Slc6a13; RIKEN FANTOM cDNA in pcDNA3; no tag mentioned
Sequence (P31649 whole entry): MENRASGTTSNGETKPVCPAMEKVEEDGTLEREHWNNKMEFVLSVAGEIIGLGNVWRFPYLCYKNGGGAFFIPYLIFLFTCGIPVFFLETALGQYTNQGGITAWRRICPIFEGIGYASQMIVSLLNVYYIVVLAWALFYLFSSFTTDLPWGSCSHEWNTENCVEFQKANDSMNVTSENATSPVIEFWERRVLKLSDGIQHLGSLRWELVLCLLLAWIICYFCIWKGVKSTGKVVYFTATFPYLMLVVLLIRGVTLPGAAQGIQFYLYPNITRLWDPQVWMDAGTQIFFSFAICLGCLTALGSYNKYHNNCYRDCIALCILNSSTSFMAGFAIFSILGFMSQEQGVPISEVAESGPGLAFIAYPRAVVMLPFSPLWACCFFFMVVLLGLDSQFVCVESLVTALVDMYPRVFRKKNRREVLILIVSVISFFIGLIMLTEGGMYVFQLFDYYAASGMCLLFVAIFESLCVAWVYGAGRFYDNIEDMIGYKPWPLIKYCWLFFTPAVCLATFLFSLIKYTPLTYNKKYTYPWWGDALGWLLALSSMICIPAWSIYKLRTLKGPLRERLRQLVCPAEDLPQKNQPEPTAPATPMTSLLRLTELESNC
experimental.readout: IC50 (µM)

{"columns": ["molecule", "measured.on", "IC50 / µM"],
 "data": [
  ["CNCCCN1c2ccccc2CCc2ccccc21", "UniProtKB P31649", 123],
  ["CN(C)CCCN1c2ccccc2CCc2ccccc21", "UniProtKB P31649", 106],
  ["CNCCCC1c2ccccc2C=Cc2ccccc21", "UniProtKB P31649", 77.2],
  ["CC(CN(C)C)CN1c2ccccc2CCc2ccccc21 (stereo not drawn)", "UniProtKB P31649", 85.6],
  ["CN(C)CCC=C1c2ccccc2CCc2ccccc21", "UniProtKB P31649", 45.8],
  ["CNCCC=C1c2ccccc2CCc2ccccc21", "UniProtKB P31649", 87.1]
]}

Origin of measurements: paper PMC3317675
